experimentalProtocol: protein stability index of a GFP-peptide fusion (yeast GPS) (PSI 1-4); higher = more stable; sorted into four equal gates, so the index is relative within each strain
protocolConditions: ubr1∆
Recorded protein stability index by entry

sequenceText | protein stability index
KLEPKEIVRDILHTKES [SIR4] | 3.04
NEVIDKLKNENTDLKDI [PCI8] | 3.13
ESKMRQQEAKYRNNEPA [YDL088C/ASM4] | 2.88
VSNPGDNPPPADNGEEY [MED2] | 3.29
SLNEVGTLKVILNLYSS [YML103C/NUP188] | 2.4
VQLRYGDYDSHDISRYV [PRP8] | 2.09
NSDDILSLHENYPQDEI [POP1] | 2.92
SVRKFLEIALFKYRKAR [RPO31] | 1.32
SALELVGQLNKVVDQLF [RPN6] | 2.68
GNVTELYGTAIGARSQG [PRE5] | 1.31
ATTQDQVASIIESFVEL [NUT2] | 2.49
NVDGNIKIVYALTTIKG [RPS18A] | 1.23
GEQIIVHPVNEREPVPL [RRP45] | 2.9
YVAPTKKEYIELDILNK [SRB4] | 2.75
GAVIQLLKSTGLHPFEV [RPB4] | 2.99
IYNGKAFNQVEIRPEML [RPS15] | 3.26
DVSPLRRVNQAIALLTI [RPS5] | 1.47
FLKLANGGKFSKSNLIH [RGR1] | 2.79
TVKFKHMDYDGNIVKEF [YMR129W/POM152] | 2.99
ELLAYQFASPVRWIETQ [FAS2] | 1.73
EKGKKVSGFKDEVLETV [RPS1B] | 3.44
WKTAEEVSALVRSLPKE [PRP8] | 1.08
SHTDQPANVLLVQSLND [NNF1] | 2.7
RADVEDESNDIDMIADE [RPC37] | 3.27
KLVEIIWNDVVYGEGTS [YJL039C/NUP192] | 3.35
YNIELPLPPRIDPSVTM [RPT1] | 1.95
LGLCLVIQIVTGIFMAM [COB] | 1.42
EDAKYVINLKQIAKFVV [RPT1] | 1.96
RKWAARAASAKIESSVE [RPS8A] | 3.4
LTKAQKYLEQVLDHQRA [RPL17A] | 2.51

* * *

experimentalProtocol: protein stability index of a GFP-peptide fusion (yeast GPS) (PSI 1-4); higher = more stable; sorted into four equal gates, so the index is relative within each strain
protocolConditions: ubr1∆
quantityName: protein stability index

sequenceText | recordedValue
LANYLTSALSELSGLIS [QCR2] | 1.59
SDPESERPAIEFETPTF [RPN14] | 3.15
DCENFFNYVQECPAIPI [YJL039C/NUP192] | 2.99
AAQDVWNRADNHFKDTY [FAS1] | 3.53
VDGMAKVPIGLILQRLK [RGR1] | 2.49
RNTYQSAMGKQAMGVFL [RPB2] | 1.79
FPPPSVAARAEILRIHS [RPT6] | 1.74
LCSMLQEASQVTFIFGE [MED11] | 2.56
NLLVLRGKNEIIQNAQR [RPO21] | 1.26
GRSDSNTEEKAELQSNL [YGL100W/SEH1] | 1.52
ALPRKLRRRTASHNVRR [POP1] | 2.74
FVNETPRVIEPVYTAQW [PRP8] | 1.19
PLNKPLLTEELAKSGST [TAF14] | 2.39
QLVPIRLEFDQDRDRFF [SNF5] | 3.1
LQLIIFLRTQFLKLYVL [RGR1] | 1.41
DNKINEIKLLEISCKQW [CSI1] | 2.45
MLKYRRLFIGDQNNKKM [SNF2] | 2.63
NHFIFNVESAGAMTPEE [RPC40] | 2.47
QDKIELSEEETLLVIRR [SNF2] | 2.98
VQPTIGQLPQLPKLNLP [SNF5] | 3.08
YYEQFRPDLIKEDHPLE [SIR3] | 2.67
MPFWKFFMKNFPFVLKV [SRB8] | 2.04
ERIVVSYEYYNIKHKHT [SMC2] | 1.87
ESVIEQIVKYARKGLTP [RPS13] | 2.81
SDNISRKYEISFGKIYV [RPB2] | 2.72
PDIADIPRTFRTPVPST [SNF5] | 2.01
LLSKLLLKHPFKAIHGS [YCS4] | 2.44
LFNNHLNGILADEMGLG [SNF2] | 2.59
MSDLFTFDWFIKTRTVH [ISW2] | 3.21
VRCVNCSKSIPKDKAIK [RPS26A] | 2.82
WELYTDFNEIVQYLSGA [POP3] | 2.43

These data points were gathered from the supplement of paper PMC9732359.
